Hi, quick share: literature Ki data for Kallikrein-5 (Homo sapiens, UniProt Q9Y337), several sources combined.
Supply the numeric figure in µM, leaving out any unit text.

Before answering, review these 3 worked examples.
molecule: CC(=O)N/C(=C\c1cccs1)C(=O)N[C@@H]1CO[C@H]2[C@@H]1OC[C@H]2OCc1ccccc1 (stereo in doubt)
reading-unit: µM
Ki: 71.9

molecule: COc1cc(/C=C(/C#N)C(=O)Nc2ccc(O)cc2)ccc1O
reading-unit: µM
Ki: 112

molecule: COC1=C(c2c(OC)cc3c(c2O)C(=O)C2=C(C[C@H](C)OC2=O)C3=O)C(=O)c2c(O)c3c(c(O)c2C1=O)C[C@H](C)OC3=O
reading-unit: µM
Ki: 22.9

IN: Query Ki on Kallikrein-5 (Homo sapiens, UniProt Q9Y337) for CCOc1cc(/C=C(/C#N)C(=O)Nc2ccc(O)cc2)ccc1O
Sequence (Q9Y337 whole entry): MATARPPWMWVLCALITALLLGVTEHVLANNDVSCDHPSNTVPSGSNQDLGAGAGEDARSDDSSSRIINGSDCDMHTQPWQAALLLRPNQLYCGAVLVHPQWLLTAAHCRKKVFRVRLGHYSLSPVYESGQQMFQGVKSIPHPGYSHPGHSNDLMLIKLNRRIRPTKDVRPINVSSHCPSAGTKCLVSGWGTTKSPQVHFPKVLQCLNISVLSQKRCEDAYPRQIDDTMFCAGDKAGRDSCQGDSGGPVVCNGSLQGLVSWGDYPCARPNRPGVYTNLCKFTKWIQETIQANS
OUT: 107

IN: Which measured Ki belongs to O=C(N[C@@H]1CO[C@H]2[C@@H]1OC[C@H]2OCc1ccccc1)/C(=C/c1cccnc1)NC(=O)c1ccccc1 (stereo in doubt) , tested on Kallikrein-5 (Homo sapiens, UniProt Q9Y337)?
OUT: 200

IN: Notebook entry, Kallikrein-5 (Homo sapiens, UniProt Q9Y337) assay: Ki of O=C(N[C@@H]1CO[C@H]2[C@@H]1OC[C@H]2OCc1ccccc1)/C(=C/c1cccs1)NC(=O)c1ccccc1 (stereo in doubt) = ?
OUT: 70.7

IN: Can you look up Ki on Kallikrein-5 (Homo sapiens, UniProt Q9Y337) for COc1cc2c(OC)c3cc(C)oc(=O)c3c(O)c2c(O)c1-c1c(OC)cc2c(OC)c3cc(C)oc(=O)c3c(O)c2c1O ?
OUT: 22.9
